# test system: Glutamate receptor ionotropic, kainate
# method: Compound was evaluated for binding affinity at Ionotropic glutamate receptor kainate using [3H]- KAIN as radioligand
readout type: IC50 (µM)
Reply numerically in µM, unit not repeated.

{"columns": ["smi", "unit label", "IC50"],
 "data": [
  ["O=C(O)C1=NO[C@H]2[C@@H]1CN[C@@H]2C(=O)O", "µM", 48]
]}

Task: Returns the measured IC50 for the input molecule. Input: O=C(O)C1=NO[C@H]2CN[C@H](C(=O)O)[C@@H]12
Result: 0.48
